# Experimental System: T1, His-labeled human CD3E (human, UniProt P07766 23-126)
# T1 construct: also called human CD3E antigen; antigen CD3E; not shown: His label
# T1 sequence (P07766 23-126): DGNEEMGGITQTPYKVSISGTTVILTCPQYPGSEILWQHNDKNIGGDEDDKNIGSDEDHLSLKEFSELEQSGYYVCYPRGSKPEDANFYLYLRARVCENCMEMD
# Assay Details: BLI (Octet), method of Example 3: His-labeled human CD3E on Ni-NTA sensors
Readout Type: Kd

q: Param item = humanized antibody AB618 (antibody, V domains shown) VH: EVQLLESGGGLVQPGGSLKLSCAASGFTFNTYAMNWVRQAPGKGLEWVGRIRSKINNYATYYADSVKDRFTISRDDSKNTAYLQMNNLKTEDTAMYYCVRHDNFYGSTYSWFADWGQGTLVTVSS VL: ELVVTQEPSLTVSPGGTVTLTCRSSTGVVTTSNYANWVQEKPDHLFTGLIGDTNYRAPGTPARFSGSLLGGKAALTLSGVQPEDEAIYFCVLWYSNHWVFGGGTKLTVL ; retrieve measured Kd.
a: < 1 pM
